B1: POU domain, class 2, transcription factor 1, residues 285 to 354; numbered along this chain, P14859 (parent)
chain: LEELEQFAKTFKQRRIKLGFTQGDVGLAMGKLYGNDFSQTTISRFEALNLSFKNMCKLKPLLEKWLNDAE

Variants of: B1
Procedure Details: abundance fitness (aPCA) (normalised: wild type 0, dead -1); higher = more abundant; growth selection in yeast, the domain comes from the species named
Condition Label: Homo sapiens
Please note: Y applies when abundance fitness is -0.04 or greater, and N applies otherwise.

>>> category("LEELEQFAKTFKQRRIKLGFTQGDVDLAMGKLYGNDFSQTTISRFEALNLSFKNMCKLKPLLEKWLNDAE [G26D]")
"N"
>>> category("LEELEQFAKTFKQRRIKLGFTQGDVGLAMGKLYGNDFSQTTISRSEALNLSFKNMCKLKPLLEKWLNDAE [F45S]")
"N"
>>> category("LEELEQFAKTFKQRRIKLGFTQGDVGLAMGKLYGNDFSQTTISRFEALNLSFKNMCKLKPLLEHWLNDAE [K64H]")
"N"
>>> category("LEELEQFAKTFKQRRIKLGFTQGDVGLAMGKLYGNLFSQTTISRFEALNLSFKNMCKLKPLLEKWLNDAE [D36L]")
"Y"
>>> category("LEELEQFAKTFKARRIKLGFTQGDVGLAMGKLYGNDFSQTTISRFEALNLSFKNMCKLKPLLEKWLNDAE [Q13A]")
"Y"
>>> category("LEELEQFAKTFKQRRIKLGFTQGDVGLAMGKLYGNDFSQTTQSRFEALNLSFKNMCKLKPLLEKWLNDAE [I42Q]")
"N"
>>> category("LEELEQFAKTFKQRRIKLGFTQGDVGLAMGKLYGNDFSQTTISRFEALNLSFKNMCKLKPGLEKWLNDAE [L61G]")
"N"
>>> category("LEELEQLAKTFKQRRIKLGFTQGDVGLAMGKLYGNDFSQTTISRFEALNLSFKNMCKLKPLLEKWLNDAE [F7L]")
"N"
>>> category("LEELEQFAKTFKQRRIKLGFTQGDVGLAVGKLYGNDFSQTTISRFEALNLSFKNMCKLKPLLEKWLNDAE [M29V]")
"Y"
>>> category("LEELEQFAKTFKQRRIKLGFTQGDVGLAMGKLYGNDFSQTTISRFEALNLSFKNMCKLKPLLEQWLNDAE [K64Q]")
"Y"
>>> category("LEELEQFAKTFKQRRNKLGFTQGDVGLAMGKLYGNDFSQTTISRFEALNLSFKNMCKLKPLLEKWLNDAE [I16N]")
"N"
>>> category("LEELEQFAKTFKQRRIKLGFTQGYVGLAMGKLYGNDFSQTTISRFEALNLSFKNMCKLKPLLEKWLNDAE [D24Y]")
"N"
>>> category("LEELEQFAKTFKQRRIKNGFTQGDVGLAMGKLYGNDFSQTTISRFEALNLSFKNMCKLKPLLEKWLNDAE [L18N]")
"N"
>>> category("LEELEQFAKTFKQRRIKLGFTQGDVGLAMGKLYGNDFSQTTISRFEALNLSFKNMCKLKPDLEKWLNDAE [L61D]")
"N"
>>> category("LEELEQFAKTFKQRRIKLGFTQGDVGLAMGKLYGNDFDQTTISRFEALNLSFKNMCKLKPLLEKWLNDAE [S38D]")
"Y"
>>> category("LEELEQFAKTFKQRRIKLGFTQGDVGLAMGKLYGNDFSQRTISRFEALNLSFKNMCKLKPLLEKWLNDAE [T40R]")
"Y"
>>> category("LEELEQFAKTFKQRRIKLGFTQGDVGLADGKLYGNDFSQTTISRFEALNLSFKNMCKLKPLLEKWLNDAE [M29D]")
"N"
>>> category("LEELEQFAKTFKQRRIKLGFTQGDVGLAMGKLYGNDFSQTTISRFEALNLSFKNMCKSKPLLEKWLNDAE [L58S]")
"N"
>>> category("LEELEQFAKTFKQRRIKLGFTQGDVGLAMGKLYGNDFSQTTISRFEKLNLSFKNMCKLKPLLEKWLNDAE [A47K]")
"Y"
>>> category("LEELEQFAKTFKQRRIKLGFTQGDVGLAMGKLYGNDFSQTTISRFEALNLSFKNMCKLKPLLMKWLNDAE [E63M]")
"Y"
>>> category("LEELEQFAKHFKQRRIKLGFTQGDVGLAMGKLYGNDFSQTTISRFEALNLSFKNMCKLKPLLEKWLNDAE [T10H]")
"Y"
>>> category("LEELEQFAKTFKQRRIKLGFTQGDVGLAMGKLYGNDFSQTTISRFEALNLSFKNMCSLKPLLEKWLNDAE [K57S]")
"Y"
>>> category("LEELEQFAKTFKQRRIKLGFTQGDVGLAMGKLYGNDFSQTTISRFEALNLSFKNMCKLKPLLEKGLNDAE [W65G]")
"N"
>>> category("LEELEQFAKTFKQRRIKLGFTQGDVGLAMGKLAGNDFSQTTISRFEALNLSFKNMCKLKPLLEKWLNDAE [Y33A]")
"N"
>>> category("LEELEQFAKTFKQRRIKLGFTQGDVGLAMGMLYGNDFSQTTISRFEALNLSFKNMCKLKPLLEKWLNDAE [K31M]")
"N"
>>> category("LEELEQFAKTFKQRRIKLGFTQGDVGLAMGKLYGNYFSQTTISRFEALNLSFKNMCKLKPLLEKWLNDAE [D36Y]")
"Y"
>>> category("LEELEQFAKGFKQRRIKLGFTQGDVGLAMGKLYGNDFSQTTISRFEALNLSFKNMCKLKPLLEKWLNDAE [T10G]")
"N"
>>> category("LEELEQFAKTFKQRRIKLGFTQGDVGLAMGKLYGNDFSQTTISRFEALNLSFKNMPKLKPLLEKWLNDAE [C56P]")
"N"
>>> category("LEELEQFAKTFKQRRIKLGFTQGDVGLAMGKLYGNDFSQTTISRFEALNLSFKNMCKLKPLLENWLNDAE [K64N]")
"Y"
>>> category("LEELEQFAKTFKQRRIKLGFTQGDVGLAMGKLYGNDRSQTTISRFEALNLSFKNMCKLKPLLEKWLNDAE [F37R]")
"N"
>>> category("LEELEQFAKTFKQRRIKLGFTQGDVGLAMGKLYGNDFSQTTISRFEALNLSFKCMCKLKPLLEKWLNDAE [N54C]")
"Y"
>>> category("LEELEQFAKTFKQRRIKLGFKQGDVGLAMGKLYGNDFSQTTISRFEALNLSFKNMCKLKPLLEKWLNDAE [T21K]")
"N"
>>> category("LEELEQFAKTFPQRRIKLGFTQGDVGLAMGKLYGNDFSQTTISRFEALNLSFKNMCKLKPLLEKWLNDAE [K12P]")
"N"
>>> category("LEELEQFAKTFKQRRIKLGFTQSDVGLAMGKLYGNDFSQTTISRFEALNLSFKNMCKLKPLLEKWLNDAE [G23S]")
"Y"
>>> category("LEELEQFAKLFKQRRIKLGFTQGDVGLAMGKLYGNDFSQTTISRFEALNLSFKNMCKLKPLLEKWLNDAE [T10L]")
"Y"
>>> category("LEELEQFAKTFKQRRIKLGFTQGDVGLAMGKLYGNDFSQTTISRFEALNLSFKNMCHLKPLLEKWLNDAE [K57H]")
"N"
>>> category("LEELEQFAKTFKQRRIKLGFTQGDVGLAMGKLYGNDFSQTTISRFEALNLSFKNMCKLKPLEEKWLNDAE [L62E]")
"N"
>>> category("LEELEQFAKTFKQRRIKLGFTQGDVGLAMGKLYGNDFSQTTISRFEALNLSFKNQCKLKPLLEKWLNDAE [M55Q]")
"Y"
>>> category("LEELEQFAKTFKQRRIKLGFTQGDVGLAMGKLYGNDFSQTTISRFEALNLSFKNMCQLKPLLEKWLNDAE [K57Q]")
"Y"
>>> category("LEELEQFAKTFKQYRIKLGFTQGDVGLAMGKLYGNDFSQTTISRFEALNLSFKNMCKLKPLLEKWLNDAE [R14Y]")
"N"
>>> category("LEELEQFAKTFKQRRIKLGFTQGDVGLAMGKLYGNDFSQTTIMRFEALNLSFKNMCKLKPLLEKWLNDAE [S43M]")
"Y"
